Experimental target: T1, GFP-9S library array, motif 4 ND D124G (synthetic construct, D124G)
T1 chain: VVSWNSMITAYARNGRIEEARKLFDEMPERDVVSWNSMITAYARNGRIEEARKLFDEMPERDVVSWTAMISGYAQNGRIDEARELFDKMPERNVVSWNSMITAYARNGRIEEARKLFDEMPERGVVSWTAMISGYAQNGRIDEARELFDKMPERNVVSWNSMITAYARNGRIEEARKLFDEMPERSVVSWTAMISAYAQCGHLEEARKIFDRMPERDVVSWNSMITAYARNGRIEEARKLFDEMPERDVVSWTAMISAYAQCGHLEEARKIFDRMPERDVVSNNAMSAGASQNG
Assay summary: high-throughput RNA pulldown from lysate on Ni-NTA beads; HRP: 50 mM Tris pH 8, 150 mM NaCl, 1 mM beta-mercaptoethanol, 50 ug/ml BSA, 3 ug/ml yeast RNA, 0.5% heparin; ITC and FP: Tris pH 8, 200 mM KCl, 5% glycerol; MST: 50 mM Tris pH 8, 200 mM NaCl, 1 mM DTT, BSA, heparin, 0.05% Tween 20
Condition notes: tags: N-terminal His-eGFP; label: 5' Cy5
Assay metric: pKd
One number for each entry, as −log10 of the molar value.

[
  {
    "Binder": "AUUAGACGUGA (ssRNA) [Cy5-rpoA-G]",
    "pKd": 6.35
  }
]

// moving on: another record for pKd
[ask] Requested field: pKd. Item: AUUACACGUGA (ssRNA) [Cy5-rpoA]
[reply] 7.51
